# System: MCF7
# Experimental Details: Cytotoxicity against Homo sapiens (human) MCF7 cells assessed as cell viability at 20 ug/ml by trypan blue assay
# Format: functional
# Reported Conditions: read-out: Activity
Measured viability at 20 µg/mL accompanies every entry in the list below.
The answer is to be given in %; state only the numeric part.

In the examples that follow, each entry is paired with its recorded viability at 20 µg/mL.
Oc1ccc(/C=C2\CCCC3C2=NNC3c2ccc(O)cc2)cc1 (stereo not given): 75
O=C1/C(=C/c2ccc(O)cc2)CCC/C1=C\c1ccc(O)cc1: 74

Short answer for "COc1cc(/C=C2\CCC/C(=C\c3ccc(O)c(OC)c3)C2=O)ccc1O" : viability at 20 µg/mL was 32

Short answer for COc1cc(/C=C2\CCCC3C2=NNC3c2ccc(O)c(OC)c2)ccc1O (stereo not given) : viability at 20 µg/mL was 19

Short answer for COc1cc(/C=C2\CCCC3=C2OC(N)=C(C#N)C3c2ccc(O)c(OC)c2)ccc1O (stereo not given) : viability at 20 µg/mL was 79

Short answer for COc1ccc(/C=C2\CCCC3=C2OC(N)=C(C#N)C3c2ccc(OC)c(OC)c2)cc1OC (stereo not given) : viability at 20 µg/mL was 21

Short answer for "CCOc1ccc(/C=C/C(=O)C(CC)(CC)C(=O)/C=C/c2ccc(OCC)c(OC)c2)cc1OC" : viability at 20 µg/mL was 94

Short answer for "COc1cc(/C=C/C(=O)CC(=O)/C=C/c2ccc(O)c(OC)c2)ccc1O" : viability at 20 µg/mL was 19

Short answer for "COc1ccc(OC)c(/C=C/C(=O)C(C)(C)C(=O)/C=C/c2cc(OC)ccc2OC)c1" : viability at 20 µg/mL was 79

Short answer for "CC(C)(C(=O)/C=C/c1ccc(O)cc1)C(=O)/C=C/c1ccc(O)cc1" : viability at 20 µg/mL was 64

====

Measured viability at 20 µg/mL accompanies every entry in the list below.
# Test system: MCF7
# Experimental Details: Cytotoxicity against Homo sapiens (human) MCF7 cells assessed as cell viability at 20 ug/ml by trypan blue assay
# Assay type: functional
# Reported Conditions: read-out: Activity
Report as: number unit

Short answer for "COc1ccc(/C=C/C(=O)C(C)(C)C(=O)/C=C/c2ccc(OC)c(OC)c2)cc1OC" : viability at 20 µg/mL was 87%

Short answer for "COc1cc(/C=C/C(=O)C(C)(C)C(=O)/C=C/c2ccc(O)c(OC)c2)ccc1O" : viability at 20 µg/mL was 55%

Short answer for "O=c1[nH]cc(F)c(=O)[nH]1" : viability at 20 µg/mL was 0%

Short answer for COc1ccc(OC)c(/C=C2\CCCC3C2=NNC3c2cc(OC)ccc2OC)c1 (stereo not given) : viability at 20 µg/mL was 82%

Short answer for N#CC1=C(N)OC2=C(CCC/C2=C\c2ccc(O)cc2)C1c1ccc(O)cc1 (stereo not given) : viability at 20 µg/mL was 82%

Source: ChEMBL document CHEMBL3045416
